Task for the reader: assign each of the following compounds its reported log10(GI50).
- System: CCRF-CEM
- METHOD_SUMMARY: Growth inhibition of human CCRF-CEM cells incubated for 48 hrs by sulforhodamine B assay
- Type: functional, cell-based
- CONDITION_PARAMETERS: read-out: GI50
Please note: log10 values; quantity GI50; unit nM.

Known log10(GI50) results, listed for orientation:
| MOL | log10(GI50) |
| --- | --- |
| COc1cc(Cl)cc(-c2nn(-c3cccc(NC(=O)Nc4cc(C(F)(F)F)cc(C(F)(F)F)c4)c3)cc2-c2ccncc2)c1 | 2.44 |
| COc1cc(Cl)cc(-c2nn(-c3cccc(NC(=O)c4ccc(N5CCOCC5)c(C(F)(F)F)c4)c3)cc2-c2ccncc2)c1 | 3.55 |
| COc1cc(Cl)cc(-c2nn(-c3cccc(NC(=O)Nc4ccc(Cl)c(C(F)(F)F)c4)c3)cc2-c2ccncc2)c1 | 2.79 |
| COc1cc(Cl)cc(-c2nn(-c3cccc(NC(=O)Nc4cccc(C(F)(F)F)c4)c3)cc2-c2ccncc2)c1 | 3.08 |

Let's switch to this compound now.
If you can, please state the reported log10(GI50) value of "COc1cc(Cl)cc(-c2nn(-c3cccc(NC(=O)c4cccc(C(F)(F)F)c4)c3)cc2-c2ccncc2)c1" .
3.64

* * *

- Tested on: SW-620
- METHOD_SUMMARY: Growth inhibition of human SW620 cells incubated for 48 hrs by sulforhodamine B assay
- Format: functional, cell-based
- CONDITION_PARAMETERS: SW-620, 48 h, read-out: pTGI (converted)
Give TGI for every item shown.
Numbers only, in µM.

| MOL | STUDY_SYSTEM | NUMBER |
| --- | --- | --- |
| O=C(Nc1cccc(-n2cc(-c3ccncc3)c(-c3cc(O)cc(Cl)c3)n2)c1)Nc1ccc(Cl)c(C(F)(F)F)c1 | SW-620 | 10.7 |
| COc1cc(Cl)cc(-c2nn(-c3cccc(NC(=O)Nc4cccc(C(F)(F)F)c4)c3)cc2-c2ccncc2)c1 | SW-620 | 26.9 |

I would be grateful if you could share the reported TGI for "O=C(Nc1cccc(-n2cc(-c3ccncc3)c(-c3cc(O)cc(Cl)c3)n2)c1)c1ccc(N2CCOCC2)c(C(F)(F)F)c1" .
7.08

* * *

- Tested on: HCC 2998
- METHOD_SUMMARY: Growth inhibition of human HCC2998 cells incubated for 48 hrs by sulforhodamine B assay
- Type: functional, cell-based
- CONDITION_PARAMETERS: HCC 2998, 48 h, read-out: GI50
What GI50 was measured for each of the following?
Answers are plain numbers, in µM.

| MOL | STUDY_SYSTEM | GI50, µM |
| --- | --- | --- |
| COc1cc(Cl)cc(-c2nn(-c3cccc(NC(=O)c4ccc(N5CCOCC5)c(C(F)(F)F)c4)c3)cc2-c2ccncc2)c1 | HCC 2998 | 5.06 |
| O=C(Nc1cccc(-n2cc(-c3ccncc3)c(-c3cc(O)cc(Cl)c3)n2)c1)c1cc(C(F)(F)F)cc(C(F)(F)F)c1 | HCC 2998 | 3.12 |
| O=C(Nc1cccc(-n2cc(-c3ccncc3)c(-c3cc(O)cc(Cl)c3)n2)c1)c1ccc(N2CCOCC2)c(C(F)(F)F)c1 | HCC 2998 | 1.52 |

Entry under review: "COc1cc(Cl)cc(-c2nn(-c3cccc(NC(=O)Nc4ccc(Cl)c(C(F)(F)F)c4)c3)cc2-c2ccncc2)c1" . Reported GI50?
2.91

* * *

- Test system: SF-295
- METHOD_SUMMARY: Growth inhibition of human SF295 cells incubated for 48 hrs by sulforhodamine B assay
- Format: functional, cell-based
- CONDITION_PARAMETERS: SF-295, 48 h, read-out: TGI
REPORTED_METRIC: TGI (µM)
Answers are plain numbers, in µM.

| MOL | REPORTED_METRIC | NUMBER |
| --- | --- | --- |
| O=C(Nc1cccc(-n2cc(-c3ccncc3)c(-c3cc(O)cc(Cl)c3)n2)c1)Nc1ccc(Cl)c(C(F)(F)F)c1 | TGI | 49.6 |
| COc1cc(Cl)cc(-c2nn(-c3cccc(NC(=O)Nc4cc(C(F)(F)F)cc(C(F)(F)F)c4)c3)cc2-c2ccncc2)c1 | TGI | 1.44 |
| COc1cc(Cl)cc(-c2nn(-c3cccc(NC(=O)Nc4ccc(Cl)c(C(F)(F)F)c4)c3)cc2-c2ccncc2)c1 | TGI | 20 |

API: the following record is the query input.
Can you share its TGI? I mean this compound: "COc1cc(Cl)cc(-c2nn(-c3cccc(NC(=O)Nc4ccc(Cl)c(Cl)c4)c3)cc2-c2ccncc2)c1"
72.1

* * *

Could you please report measured GI50 for the items listed next?
- Test system: HCT-116
- METHOD_SUMMARY: Growth inhibition of human HCT116 cells incubated for 48 hrs by sulforhodamine B assay
- Type: functional, cell-based
- CONDITION_PARAMETERS: HCT-116, 48 h, read-out: pGI50 (converted)
Answers are plain numbers, in nM.

Below, each entry is followed by its recorded GI50 result.
| MOL | READING_UNIT | GI50 |
| --- | --- | --- |
| COc1cc(Cl)cc(-c2nn(-c3cccc(NC(=O)c4cccc(C(F)(F)F)c4)c3)cc2-c2ccncc2)c1 | nM | 3160 |
| COc1cc(Cl)cc(-c2nn(-c3cccc(NC(=O)Nc4ccc(Cl)c(Cl)c4)c3)cc2-c2ccncc2)c1 | nM | 2040 |
| COc1cc(Cl)cc(-c2nn(-c3cccc(NC(=O)Nc4cccc(C(F)(F)F)c4)c3)cc2-c2ccncc2)c1 | nM | 759 |
| COc1cc(Cl)cc(-c2nn(-c3cccc(NC(=O)c4ccc(N5CCOCC5)c(C(F)(F)F)c4)c3)cc2-c2ccncc2)c1 | nM | 9550 |

Now for another entry.
// returns reported GI50 for input "O=C(Nc1cccc(-n2cc(-c3ccncc3)c(-c3cc(O)cc(Cl)c3)n2)c1)c1ccc(N2CCOCC2)c(C(F)(F)F)c1"
1950

* * *

- Tested on: KM12
- METHOD_SUMMARY: Growth inhibition of human KM12 cells assessed as cell growth at 0.01 uM incubated for 48 hrs by sulforhodamine B assay relative to control
- Assay type: functional
- CONDITION_PARAMETERS: KM12, 48 h, read-out: Activity
Would you kindly list growth at 0.01 µM for each of these molecules?
Give bare numbers, in %.

| MOL | growth at 0.01 µM, % |
| --- | --- |
| COc1cc(Cl)cc(-c2nn(-c3cccc(NC(=O)Nc4cccc(C(F)(F)F)c4)c3)cc2-c2ccncc2)c1 | 97 |
| COc1cc(Cl)cc(-c2nn(-c3cccc(NC(=O)Nc4ccc(Cl)c(C(F)(F)F)c4)c3)cc2-c2ccncc2)c1 | 95 |
| O=C(Nc1cccc(-n2cc(-c3ccncc3)c(-c3cc(O)cc(Cl)c3)n2)c1)c1ccc(N2CCOCC2)c(C(F)(F)F)c1 | 105 |
| COc1cc(Cl)cc(-c2nn(-c3cccc(NC(=O)Nc4ccc(Cl)c(Cl)c4)c3)cc2-c2ccncc2)c1 | 96 |

Now consider the entry below.
Lookup: growth at 0.01 µM / KM12 / "COc1cc(Cl)cc(-c2nn(-c3cccc(NC(=O)c4ccc(N5CCOCC5)c(C(F)(F)F)c4)c3)cc2-c2ccncc2)c1"
96

* * *

I'd be grateful if you could share measured growth at 0.01 µM for these entries.
- Tested on: OVCAR-8
- METHOD_SUMMARY: Growth inhibition of human OVCAR8 cells assessed as cell growth at 0.01 uM incubated for 48 hrs by sulforhodamine B assay relative to control
- Assay type: functional
- CONDITION_PARAMETERS: OVCAR-8, 48 h, read-out: Activity
Numbers only, in %.

Below, 4 molecules whose answers are already recorded.
| MOL | NUMBER |
| --- | --- |
| COc1cc(Cl)cc(-c2nn(-c3cccc(NC(=O)Nc4ccc(Cl)c(C(F)(F)F)c4)c3)cc2-c2ccncc2)c1 | 98 |
| COc1cc(Cl)cc(-c2nn(-c3cccc(NC(=O)c4cccc(C(F)(F)F)c4)c3)cc2-c2ccncc2)c1 | 103 |
| O=C(Nc1cccc(-n2cc(-c3ccncc3)c(-c3cc(O)cc(Cl)c3)n2)c1)c1cc(C(F)(F)F)cc(C(F)(F)F)c1 | 98 |
| COc1cc(Cl)cc(-c2nn(-c3cccc(NC(=O)Nc4cc(C(F)(F)F)cc(C(F)(F)F)c4)c3)cc2-c2ccncc2)c1 | 99 |

For OVCAR-8, provide growth at 0.01 µM of "COc1cc(Cl)cc(-c2nn(-c3cccc(NC(=O)Nc4cccc(C(F)(F)F)c4)c3)cc2-c2ccncc2)c1" please.
97

These measurements were taken from ChEMBL document CHEMBL4308841.
